# System: A375 multi-cell spheroids with HUVEC/MSC, viability
# MEASUREMENT DESCRIPTION: Anticancer human tumor A375 cell line growth inhibition [GQUAD];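 also: spheroids exposed to compounds for seven days before readout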
# SETUP CONDITIONS: second compound 10 µM; first compound 0.000999 µM; stronger effect = lower value
MEASURED PROPERTY: viability, T/C

Some entries whose results are on file:
Cc1[nH]c2ccccc2c1CCNCc1ccc(/C=C/C(=O)NO)cc1 + CN(C)c1ccc(Nc2c3ccc(NC(=O)CCN4CCCC4)cc3nc3cc(NC(=O)CCN4CCCC4)ccc23)cc1	111%
Cn1ncnc1[C@H]1c2n[nH]c(=O)c3cc(F)cc(c23)N[C@@H]1c1ccc(F)cc1 + Cc1cnc(CNC(=O)c2c(=O)c3ccc(N4CCCN(C)CC4)nc3n3c2sc2ccccc23)cn1	29.1%

Note: attention shifts to another entry.
Query: Reported viability, T/C for Cc1[nH]c2ccccc2c1CCNCc1ccc(/C=C/C(=O)NO)cc1 + Cc1[nH]c2ccc(F)cc2c1-c1nc2c3cccnc3c3ncccc3c2[nH]1 : what is it?
Response: 86%

====

# Test system: A375 multi-cell spheroids with HUVEC/MSC, viability
# MEASUREMENT DESCRIPTION: Anticancer human tumor A375 cell line growth inhibition [GQUAD];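 also: spheroids exposed to compounds for seven days before readout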
# SETUP CONDITIONS: curve of first compound; second compound 0.0316 µM
pIC50: −log10 of the molar value.
Below is a list of entries, each paired with its recorded pIC50 value.

Some entries whose results are on file:
O=C(c1cc(Cc2n[nH]c(=O)c3ccccc23)ccc1F)N1CCN(C(=O)C2CC2)CC1 + CN(C)c1ccc(Nc2c3ccc(NC(=O)CCN4CCCC4)cc3nc3cc(NC(=O)CCN4CCCC4)ccc23)cc1	< 5.00
O=C(c1cc(Cc2n[nH]c(=O)c3ccccc23)ccc1F)N1CCN(C(=O)C2CC2)CC1 + Cc1cnc(CNC(=O)c2c(=O)c3ccc(N4CCCN(C)CC4)nc3n3c2sc2ccccc23)cn1	< 5.00

Note: attention shifts to another entry.
Query: Reported pIC50 for CC1COCCN1c1cc(C2(O)CC3CCC(C2)O3)c2cnn(-c3ccn[nH]3)c2n1 (stereo not drawn) + Cc1cnc(CNC(=O)c2c(=O)c3ccc(N4CCCN(C)CC4)nc3n3c2sc2ccccc23)cn1 : what is it?
Response: 6.90

====

# System: A375 multi-cell spheroids with HUVEC/MSC, viability
# MEASUREMENT DESCRIPTION: Anticancer human tumor A375 cell line growth inhibition [GQUAD];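 also: spheroids exposed to compounds for seven days before readout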
# SETUP CONDITIONS: curve of first compound; second compound 3.16 µM
MEASURED PROPERTY: IC50

Some entries whose results are on file:
CC(C)(O)C1CCC(Nc2ccc3ncc(-c4cccc(C(F)(F)F)c4)n3n2)CC1 (stereo not drawn) + Cc1cnc(CNC(=O)c2c(=O)c3ccc(N4CCCN(C)CC4)nc3n3c2sc2ccccc23)cn1	< 0.0316 µM
COc1ncnc(C2CC2)c1-c1ncc2cnn(Cc3ccc(-c4nc(C(F)(F)F)cn4C(C)C)cc3)c2n1 + Cc1cnc(CNC(=O)c2c(=O)c3ccc(N4CCCN(C)CC4)nc3n3c2sc2ccccc23)cn1	< 0.0316 µM

Note: attention shifts to another entry.
Query: Reported IC50 for CC(=O)O[C@H]1C(=O)[C@@]2(C)[C@H]([C@H](OC(=O)c3ccccc3)[C@]3(O)C[C@H](OC(=O)[C@H](O)[C@@H](NC(=O)c4ccccc4)c4ccccc4)C(C)=C1C3(C)C)[C@]1(OC(C)=O)CO[C@@H]1C[C@@H]2O + Cc1cnc(CNC(=O)c2c(=O)c3ccc(N4CCCN(C)CC4)nc3n3c2sc2ccccc23)cn1 : what is it?
Response: < 0.0316 µM
